src = ChEMBL document CHEMBL1123618

target: Renin (Homo sapiens, UniProt P00797); test: Inhibitory activity against human plasma renin.
Sequence (P00797 whole entry): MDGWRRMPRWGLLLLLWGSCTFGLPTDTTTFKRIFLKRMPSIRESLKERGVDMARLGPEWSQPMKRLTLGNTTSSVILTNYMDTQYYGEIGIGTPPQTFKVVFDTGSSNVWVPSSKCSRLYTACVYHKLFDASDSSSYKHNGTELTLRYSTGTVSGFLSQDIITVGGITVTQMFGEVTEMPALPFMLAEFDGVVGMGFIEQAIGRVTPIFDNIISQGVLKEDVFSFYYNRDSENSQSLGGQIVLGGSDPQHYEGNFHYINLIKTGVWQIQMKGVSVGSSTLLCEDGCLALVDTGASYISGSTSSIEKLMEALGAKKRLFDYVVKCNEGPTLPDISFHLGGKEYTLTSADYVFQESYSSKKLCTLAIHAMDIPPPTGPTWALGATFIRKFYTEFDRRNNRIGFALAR
Binary label based on IC50 with cut-off 500 nM: below gives Met, not below gives Not met.

Worked examples, 4 compounds total:
Bench note: check whether `CC[C@H](C)[C@H](NC(=O)C(F)(F)[C@H](N)[C@H](CC(C)C)NC(=O)[C@H](Cc1cnc[nH]1)NC(=O)[C@H](Cc1ccccc1)NC(=O)OC(C)(C)C)C(=O)NCc1ccccn1` shows IC50 below 500 nM
Met

I'd appreciate it if you could check whether `CC[C@H](C)[C@H](NC(=O)C[C@@H](O)[C@H](CC(C)C)NC(=O)[C@H](Cc1c[nH]cn1)NC(=O)[C@H](Cc1ccccc1)NC(=O)OC(C)(C)C)C(=O)NCc1ccccn1` has IC50 smaller than 500 nM.
Met

Consider the compound `CC[C@H](C)[C@H](NC(=O)C(F)(F)[C@@H](N)[C@H](CC(C)C)NC(=O)[C@H](Cc1cnc[nH]1)NC(=O)[C@H](Cc1ccccc1)NC(=O)OC(C)(C)C)C(=O)NCc1ccccn1` . Is its IC50 strictly less than 500 nM?
Not met

Given `CC[C@H](C)[C@H](NC(=O)C[C@@H](N)[C@H](CC(C)C)NC(=O)[C@H](Cc1c[nH]cn1)NC(=O)[C@H](Cc1ccccc1)NC(=O)OC(C)(C)C)C(=O)NCc1ccccn1` , is recorded IC50 strictly lower than 500 nM?
Met

# next compound below
Decide: IC50 of `CC[C@H](C)[C@H](NC(=O)C[C@H](N)[C@H](CC(C)C)NC(=O)[C@H](Cc1c[nH]cn1)NC(=O)[C@H](Cc1ccccc1)NC(=O)OC(C)(C)C)C(=O)NCc1ccccn1` strictly below 500 nM?
Met
